system: Staphylococcus epidermidis; experiment: standard microtiter assay, minimum inhibitory concentration; type: cell-based; settings: Test Organism 6, strain of Staphylococcus epidermidis
readout kind: minimum inhibitory concentration of antibiotic, Test Organism 6 (µg/mL)
Write down the numeric answer in µg/mL and omit the unit.

>  <compound>
CNC1C(=O)NC2C(=O)NC(C(=O)NC3C(=O)NC4C(=O)NC(C(=O)NC(C(N)=O)c5cc(O)cc(OC6OC(CO)C(O)C(O)C6O)c5-c5cc4ccc5O)C(O)c4cc(Cl)c(c(Cl)c4)Oc4cc3cc(c4O)Oc3ccc(cc3Cl)C2O)c2cc(cc(O)c2Cl)Oc2cc1ccc2O (centres unmarked) [Compound 2n, Ardacin mannosylaglycone amide]

>  <display unit>
µg/mL

>  <experimental result>
1600

$$$$

Indicate the recorded minimum inhibitory concentration of antibiotic, Test Organism 6 value for this compound: CNC1C(=O)NC2C(=O)NC(C(=O)NC3C(=O)NC4C(=O)NC(C(=O)NC(C(=O)NCCO)c5cc(O)cc(O)c5-c5cc4ccc5O)C(O)c4cc(Cl)c(c(Cl)c4)Oc4cc3cc(c4O)Oc3ccc(cc3Cl)C2O)c2cc(cc(O)c2Cl)Oc2cc1ccc2O (centres unmarked) [Compound 2d, Ardacin aglycone-(2-hydroxyethyl amide)]
400

Indicate the recorded minimum inhibitory concentration of antibiotic, Test Organism 6 value for this compound: CCCCCCCCCC(=O)NC1C(Oc2c3cc4cc2Oc2c(Cl)cc(cc2Cl)C(O)C2NC(=O)C(NC(=O)C4NC(=O)C4NC(=O)C(NC(=O)C(NC)c5ccc(O)c(c5)Oc5cc(O)c(Cl)c4c5)C(O)c4ccc(c(Cl)c4)O3)c3ccc(O)c(c3)-c3c(OC4OC(CO)C(O)C(O)C4O)cc(O)cc3C(C(=O)NCCO)NC2=O)OC(C(=O)NCCO)C(O)C1O (centres unmarked) [Compound 2l, Ardacin A-di-(2-hydroxyethyl amide)]
1600

Indicate the recorded minimum inhibitory concentration of antibiotic, Test Organism 6 value for this compound: CNC1C(=O)NC2C(=O)NC(C(=O)NC3C(=O)NC4C(=O)NC(C(=O)NC(C(N)=O)c5cc(O)cc(O)c5-c5cc4ccc5O)C(O)c4cc(Cl)c(c(Cl)c4)Oc4cc3cc(c4O)Oc3ccc(cc3Cl)C2O)c2cc(cc(O)c2Cl)Oc2cc1ccc2O (centres unmarked) [Compound 2c, Ardacin aglycone amide]
400

Indicate the recorded minimum inhibitory concentration of antibiotic, Test Organism 6 value for this compound: CN[C@H](CC(C)C)C(=O)N[C@H]1C(=O)N[C@@H](CC(N)=O)C(=O)N[C@H]2C(=O)N[C@H]3C(=O)N[C@H](C(=O)N[C@H](C(=O)O)c4cc(O)cc(O)c4-c4cc3ccc4O)[C@H](O)c3ccc(c(Cl)c3)Oc3cc2cc(c3O[C@@H]2O[C@H](CO)[C@@H](O)[C@H](O)[C@H]2O[C@H]2C[C@](C)(N)[C@H](O)[C@H](C)O2)Oc2ccc(cc2Cl)[C@H]1O [Vancomycin, reference compound]
3100

---

tested on: Staphylococcus epidermidis; test: standard microtiter assay, minimum inhibitory concentration; format: cell-based; settings: Test Organism 6, strain of Staphylococcus epidermidis
Readings of minimum inhibitory concentration of antibiotic, Test Organism 6 for the listed molecules
Write down the numeric answer in µg/mL and omit the unit.

>  <molecule>
CCCCCCCCCC(=O)NC1C(Oc2c3cc4cc2Oc2c(Cl)cc(cc2Cl)C(O)C2NC(=O)C(NC(=O)C4NC(=O)C4NC(=O)C(NC(=O)C(NC)c5ccc(O)c(c5)Oc5cc(O)c(Cl)c4c5)C(O)c4ccc(c(Cl)c4)O3)c3ccc(O)c(c3)-c3c(OC4OC(CO)C(O)C(O)C4O)cc(O)cc3C(C(=O)NCCN)NC2=O)OC(C(=O)NCCN)C(O)C1O (centres unmarked) [Compound 2m, Ardacin A-di-(2-aminoethylamide)]

>  <experimental result>
1600

$$$$

Let us examine a further case.
Indicate the recorded minimum inhibitory concentration of antibiotic, Test Organism 6 value for this molecule: CNCCNC(=O)C1NC(=O)C2NC(=O)C(NC(=O)C3NC(=O)C4NC(=O)C(NC(=O)C(NC)c5ccc(O)c(c5)Oc5cc(O)c(Cl)c4c5)C(O)c4ccc(c(Cl)c4)Oc4cc3cc(c4O)Oc3c(Cl)cc(cc3Cl)C2O)c2ccc(O)c(c2)-c2c(O)cc(O)cc21 (centres unmarked) [Compound 2f]
200
